# Measurement target: T1, Rhesus D antigen (human, UniProt Q02161 2-417)
# T1 construct: whole, on cells; Presented on RhD(+) erythrocytes; also called RhD; RhD antigen
# T1 sequence (looked up): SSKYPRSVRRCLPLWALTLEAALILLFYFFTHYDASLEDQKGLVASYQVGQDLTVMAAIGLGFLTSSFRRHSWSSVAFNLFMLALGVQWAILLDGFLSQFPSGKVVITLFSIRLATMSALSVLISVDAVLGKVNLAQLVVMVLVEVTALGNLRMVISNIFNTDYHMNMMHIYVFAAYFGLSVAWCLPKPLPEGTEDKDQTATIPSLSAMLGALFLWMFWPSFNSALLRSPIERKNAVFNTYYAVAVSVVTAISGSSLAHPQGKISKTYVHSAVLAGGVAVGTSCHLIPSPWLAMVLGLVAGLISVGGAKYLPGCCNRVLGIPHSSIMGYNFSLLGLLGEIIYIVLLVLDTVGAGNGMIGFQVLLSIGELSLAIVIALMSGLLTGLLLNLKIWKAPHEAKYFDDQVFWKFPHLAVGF
# Method summary: Fab screening on RBC (agglutination, FACS)
Experimental endpoint: binding result

Binder	Experimental endpoint	Result
RhD301.160A04 (Fab, V domains shown, Tested as Fab in E. coli periplasmic extract (VH on human gamma 1 CH1, vector Em351)) VH: QVQLVESGGGVVQPGRSLRLSCAASGFTFSSYGMHWVRQAPGKGLEWVAVIWFDGGNKYYADSAKGRFTISRDNSKNTLYLQMNSLRAEDTAVYYCARDASVLSGLVTRRLVYYGMDVWGQGTTVTVSS VL: DVVMTQSPLSLPVTPGEPASISCRSSQSLLHRNGYNYLNWYLQKPGQSPQLLIYLGSNRASGVPDRFSGSGSGTDFTLKISGVEAEDVAFYYCMQGLRTPYTFGQGTKLEIKR	binding result	binds
RhD299.127A12 (Fab, V domains shown, Tested as Fab in E. coli periplasmic extract (VH on human gamma 1 CH1, vector Em351)) VH: QVQLVESGGGVVQPGRSLRLSCAASGFTFSNFGMHWVRQAPGKGLEWVAVIWYDGSNKDYADSVKGRFTISRDNSKRTLYLQMNSLRAEDTAVYYCARELARGRLRDLDYWGQGTLVTVSS VL: QAVVTQEPSLTVSPGGTVTLTCASSTGAVTTGYYPNWFQQKPGQAPRALIYSTSKKHSWTPARFSGSLLGGKAALTLSGVQPEDEAEYYCLLFYGGAQLGVFGGGTKLTVLG	binding result	binds
RhD300.134H09 (Fab, V domains shown, Tested as Fab in E. coli periplasmic extract (VH on human gamma 1 CH1, vector Em351)) VH: QVQLVESGGGVVQPGRSLRLSCAASGFTFSSYGMHWVRQAPGKGLEWVAVIWYDGSNKYYADSVKGRFTISRDNSKNTLYLQMNSLRAEDTAVYYCAREFYTRSGLWSQGYSYYMDVWGKGTTVTVSS VL: QTVVTQEPSFSVSPGGTVTLTCGLSSGSVSARYYPSWYQQTPGQPPRTLIHSTNTRSSGVPDRFSGSILGNKAALTITGAQADDESDYYCVLYMGSGPWVFGGGTKLTVLG	binding result	binds

Sourced from patent US20090017017A1
